TGI values by entry
- Test system: MALME-3M melanoma
- assay-explanation: NCI tumour cell line growth inhibition, 48 h

These recorded examples may help you get a feel for the data.
// query TGI value for entry `FC(F)(F)c1cccc(Nc2nccc(-c3cnn4nc(-c5ccccc5)ccc34)n2)c1`
14.1 µM

# lookup: TGI of COC(=O)C1CC2(c3ccccc3)C(=O)c3ccccc3N2O1 (stereo unspecified)
> 100 µM

Given the entry COc1cc(C2=NOC(c3cc(OC)c(OC)c(OC)c3)C2)ccc1OCCCCOc1cc2c(cc1OC)C(=O)N1CCC[C@H]1C=N2 (stereo partly specified) , report its measured TGI.
0.364 µM

Value lookup for TGI; key = CCC(C)C(=O)OC1CC2(C)C(c3ccoc3)OC(=O)CC23OC2(C)OC34C(OC(=O)C(C)C)C3(O)C(OC(=O)C5(C)OC5C)C5(C)CC3(O)C(C)(C5CC(=O)OC)C14O2 (stereo unspecified)
> 100 µM

Which measured TGI value corresponds to CCOC(=O)C(NC(=O)CC(C)C)(N1CCN(c2cc3c(cc2F)c(=O)c(C(=O)O)cn3C2CC2)CC1)C(F)(F)F (stereo unspecified) ?
31.7 µM

Further cases:
I am curious: what TGI value has been reported for `COc1c(C)c2nc3ccccc3[nH]c2c2c(=O)ccnc12` ?
> 100 µM

Tell me the measured TGI of O=C1C(Cl)N(c2ccccc2[N+](=O)[O-])C1c1c[nH]c2ccccc12 (stereo unspecified) , please.
> 100 µM

Data request, read-out TGI, for `CCC[CH2][Sn]1([CH2]CCC)[O]Cc2nc(C)ccc2[O]1`
14.5 µM

Look up TGI for this compound: `CN1CCN(C)C12C=c1ccccc1=CC21CC1`
59 µM

Param item = `C=C1C(=O)O[C@H]2[C@H]1CC/C(COC(=O)c1ccc3ccccc3c1)=C\CC[C@@]1(C)O[C@@H]21` ; retrieve measured TGI.
3.47 µM

// lookup TGI for CCOC(=O)[C]1([Bi]([CH3])[CH3])N=NC(C(=O)OC)=C1C(=O)OC (stereo unspecified)
31.8 µM

Entry under review: COC(=O)/C(=N/NC(=O)C[N+](C)(C)C)C(C(=O)OC)C(=O)C(=O)Nc1ccc(F)cc1 (stereo unspecified) . Reported TGI?
> 100 µM

Look up TGI for this compound: CC1S/C(=N/c2nnc(-c3ccccc3)o2)NC1=O (stereo unspecified)
> 100 µM

Param item = `CC[C@@]1(O)C(=O)OCc2c1cc1n(c2=O)Cc2c-1nc1cc3c(cc1c2CCl)OCO3` ; retrieve measured TGI.
2 µM

Bench note: what TGI did `Cc1nn(-c2cc(Cl)ccc2[N+](=O)[O-])c(C)c1Cl` show?
> 100 µM

* * *

- Tested on: HCC-2998 colon
- assay-explanation: NCI tumour cell line growth inhibition, 48 h
measurement-label: TGI (µM)
A number alone suffices; assume µM.

Some compounds with known TGI results, for comparison:
I'd like to know its TGI. The compound in question is `CC1=CC(=Nc2ccc(N(CCCl)CCCl)cc2)C=C(C)C1=O`
9.83

Return reported TGI; argument: C=C1C(=O)O[C@@]23C1CC[C@@H](C)C2CC[C@@]1(C)OC31 (stereo partly specified)
16.2

What value of TGI has been recorded for this entry: `COc1cc(C2=C(c3ccccc3)COC2=O)cc(OC)c1OC`
5.97

What TGI value was documented for this compound, `CC[CH2][Sn]([CH2]CC)([O]C(=O)c1cccnc1SC)[O][Sn]([CH2]CC)([CH2]CC)[O]C(=O)c1cccnc1SC` ?
1.92

More entries:
Please report the recorded TGI for `O=C1/C(=C/c2ccccc2)CNC/C1=C\c1ccccc1` .
3.33
